Biological target: β-catenin/Tcf protein-protein interaction (Homo sapiens, UniProt P35222)
Construct: Wild-type β-catenin (residues 138-781) were cloned into a pET-28b vector; 6×histidine (C); made in house; host or cells: E. coli BL21 DE3
Sequence (P35222 138-781): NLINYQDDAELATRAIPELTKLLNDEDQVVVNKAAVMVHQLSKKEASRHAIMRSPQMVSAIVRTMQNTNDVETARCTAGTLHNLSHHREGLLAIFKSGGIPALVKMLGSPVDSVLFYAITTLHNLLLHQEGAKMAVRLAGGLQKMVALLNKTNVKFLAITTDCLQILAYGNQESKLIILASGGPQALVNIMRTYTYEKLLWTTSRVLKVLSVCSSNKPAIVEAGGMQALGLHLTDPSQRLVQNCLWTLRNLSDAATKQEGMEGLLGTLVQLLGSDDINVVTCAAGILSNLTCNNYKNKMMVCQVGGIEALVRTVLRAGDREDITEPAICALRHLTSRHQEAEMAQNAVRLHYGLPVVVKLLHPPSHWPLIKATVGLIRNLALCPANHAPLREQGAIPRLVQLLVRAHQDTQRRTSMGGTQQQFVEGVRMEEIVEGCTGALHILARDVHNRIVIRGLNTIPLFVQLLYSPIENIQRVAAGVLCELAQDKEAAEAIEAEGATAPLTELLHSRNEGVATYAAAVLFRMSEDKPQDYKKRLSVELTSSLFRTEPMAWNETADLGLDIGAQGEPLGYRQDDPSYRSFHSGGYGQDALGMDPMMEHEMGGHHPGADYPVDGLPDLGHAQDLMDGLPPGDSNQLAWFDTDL
Experiment: FP competitive inhibition assay
Type: binding
Conditions: Assay 2, mean ± SD (n = 3), read-out: Ki ± SD, Assay 2
pKi: −log10 of the molar value.
metric: pKi

Some molecules with known pKi results, for comparison:
> print(dat)
                                   molecule  numeric.result
1  COc1ccc2sc(CCc3c(CCc4ccc(Cl)cc4)c4cc(C(=O)NCc5cccc(Cl)c5)ccc4n3CCc3nn[nH]n3)nc2c1 [Compound 53]            5.21
2  COc1ccc2sc(CCc3c(CCc4ccc(Cl)cc4)c4cc(C(=O)NCc5ccncc5)ccc4n3CCc3nn[nH]n3)nc2c1 [Compound 56]            5.72
3  COCCOc1ccc2sc(CCc3c(CCc4ccc(Cl)cc4)c4cc(C(=O)O)ccc4n3CCc3nn[nH]n3)nc2c1 [Compound 32]            5.12
4  O=C(O)CCn1c(CCc2nc3ccccc3s2)c(CCc2ccc(Cl)cc2)c2cc(C(=O)O)ccc21 [Compound 39]            5.85
5  COc1ccc2sc(CCc3c(CCc4ccc(Cl)cc4)c4cc(C(=O)O)ccc4n3CCc3nn[nH]n3)nc2c1 [Compound 31]            5.39
6  Cc1ccc(CCc2c(-c3csc4ccccc34)n(CCc3nn[nH]n3)c3ccc(C(=O)O)cc23)cc1 [Compound 79]            6.15
7  O=C(O)c1ccc2c(c1)c(CCC1CCOCC1)cn2CCc1nn[nH]n1 [Compound 21]            5.12
8  COc1ccc2sc(CCc3c(CCc4ccc(Cl)cc4)c4cc(C(=O)NCc5cnccn5)ccc4n3CCc3nn[nH]n3)nc2c1 [Compound 58]            5.12

1: COc1ccc2sc(CCc3c(CCc4ccc(Cl)cc4)c4cc(C(=O)NCc5ccccc5Br)ccc4n3CCc3nn[nH]n3)nc2c1 [Compound 52]
2: O=C(NCc1ccc(F)cc1)c1ccc2c(c1)c(CCc1ccc(F)cc1)c(CCc1nc3ccccc3s1)n2CCc1nn[nH]n1 [Compound 44]
3: COc1ccc2sc(CCc3c(CCc4ccc(Cl)cc4)c4cc(C(=O)NCc5ccccc5Cl)ccc4n3CCc3nn[nH]n3)nc2c1 [Compound 51]
4: COc1ccc2sc(CCc3c(CCc4ccc(Cl)cc4)c4cc(C(=O)OCc5ccc(Cl)cc5)ccc4n3CCc3nn[nH]n3)nc2c1 [Compound 70]
Place the items in sequence of falling pKi. Output spec: a listing of the labels in the requested order.
4, 2, 1, 3

* * *

Target: β-catenin/E-cadherin (Homo sapiens, UniProt P35222)
Construct: 150 nM human β-catenin (residues 138-781); 6×histidine (C)
Sequence (P35222 138-781): as above
Test: FP selectivity assay, β-catenin/cadherin assay
Conditions: FP selectivity assay; mean ± SD (n = 3)
metric: pKi
Just so you know, pKi here is -log10 of the concentration in molar units; reply with that number alone.

For the compound shown here, O=C(O)c1ccc2c(c1)c(CCc1ccc(Cl)cc1)c(CCc1nc3ccccc3s1)n2CCc1nn[nH]n1 [Compound 27] , give the reported pKi.
4.59
